Ref: patent US12291518B2

compounds and their reported EC50
- measured.on: THR alpha-LBD (Homo sapiens, UniProt P10827)
- Construct: except that THR alpha-LBD of a final concentration 0.25 nM was used; purchased Invitrogen PV4687
- Sequence (P10827 163-410 isoform P10827-2 limits assumed, other chains not shown): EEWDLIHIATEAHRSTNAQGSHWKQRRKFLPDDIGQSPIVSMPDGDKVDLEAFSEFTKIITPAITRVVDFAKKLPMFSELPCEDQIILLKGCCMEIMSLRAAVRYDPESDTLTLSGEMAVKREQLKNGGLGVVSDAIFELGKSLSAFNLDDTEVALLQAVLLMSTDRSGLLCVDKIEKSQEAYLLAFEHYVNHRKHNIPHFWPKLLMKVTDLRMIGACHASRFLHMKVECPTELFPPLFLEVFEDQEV
- protocol.details: THR-α Coactivator Peptide Recruitment Assay (LanthaScreen TR-FRET)
- Type: biochemical
- assay.setup: TR-FRET coactivator recruitment, THR alpha-LBD 0.25 nM; read-out: THRα EC50

# compound, EC50
data = [
    ("O=c1[nH]c(=O)n(-c2cc(Cl)c(Oc3cc(S(=O)(=O)N[C@H]4CCOC4)c(O)cn3)c(Cl)c2)nc1C(F)F", "2 to 200 nM"),
    ("CN(C)S(=O)(=O)c1cc(Oc2c(Cl)cc(-n3nc(C(F)F)c(=O)[nH]c3=O)cc2Cl)ncc1O", "2 to 200 nM"),
    ("O=C(c1cc(Oc2c(Cl)cc(-n3nc(Cl)c(=O)[nH]c3=O)cc2Cl)ccc1O)N1C[C@@H]2CC[C@H]1C2 (single isomer, unassigned)", "2 to 200 nM"),
    ("O=c1[nH]c(=O)n(-c2cc(Cl)c(Oc3ccc(O)c(S(=O)(=O)NCC4(O)CC4)c3)c(Cl)c2)nc1C(F)F", "2 to 200 nM"),
    ("O=c1[nH]c(=O)n(-c2cc(Cl)c(Oc3ccc(O)c(S(=O)(=O)N[C@@H]4CCOC4)c3)c(Cl)c2)nc1C(F)F", "< 2 nM"),
    ("O=c1[nH]c(=O)n(-c2cc(Cl)c(Oc3cc(S(=O)(=O)NC[C@H]4C[C@@H](O)C4)c(O)cn3)c(Cl)c2)nc1C(F)F", "> 1000 nM"),
    ("O=c1[nH]c(=O)n(-c2cc(Cl)c(Cc3ccc(O)c(S(=O)(=O)NC4CS(=O)(=O)C4)c3)c(Cl)c2)nc1C(F)F", "< 2 nM"),
    ("CS(=O)(=O)CC1(NS(=O)(=O)c2cc(Oc3c(Cl)cc(-n4nc(C(F)F)c(=O)[nH]c4=O)cc3Cl)ccc2O)CC1", "200 to 1000 nM"),
    ("Cc1nn(-c2cc(Cl)c(Oc3cc(S(=O)(=O)N[C@H]4C[C@@H](O)C4)c(O)cn3)c(Cl)c2)c(=O)[nH]c1=O", "> 1000 nM"),
    ("O=C(N[C@H]1C[C@H](O)C1)c1cc(Oc2c(Cl)cc(-n3nc(C(F)F)c(=O)[nH]c3=O)cc2Cl)ccc1O", "200 to 1000 nM"),
    ("CN1C[C@@H](NS(=O)(=O)c2cc(Oc3c(Cl)cc(-n4nc(C(F)F)c(=O)[nH]c4=O)cc3Cl)ccc2O)CC1=O (single isomer, unassigned)", "200 to 1000 nM"),
    ("O=C(NCC1(NS(=O)(=O)c2cc(Oc3c(Cl)cc(-n4nc(C(F)F)c(=O)[nH]c4=O)cc3Cl)ccc2O)CC1)C1CC1", "2 to 200 nM"),
    ("O=C(c1cc(Oc2c(Cl)cc(-n3nc(Cl)c(=O)[nH]c3=O)cc2Cl)ccc1O)N1C[C@H]2CC[C@@H]1C2 (single isomer, unassigned)", "2 to 200 nM"),
]
